MEASURED TARGET: Type-1 angiotensin II receptor (Cavia porcellus, UniProt Q9WV26)
Sequence (Q9WV26 whole entry): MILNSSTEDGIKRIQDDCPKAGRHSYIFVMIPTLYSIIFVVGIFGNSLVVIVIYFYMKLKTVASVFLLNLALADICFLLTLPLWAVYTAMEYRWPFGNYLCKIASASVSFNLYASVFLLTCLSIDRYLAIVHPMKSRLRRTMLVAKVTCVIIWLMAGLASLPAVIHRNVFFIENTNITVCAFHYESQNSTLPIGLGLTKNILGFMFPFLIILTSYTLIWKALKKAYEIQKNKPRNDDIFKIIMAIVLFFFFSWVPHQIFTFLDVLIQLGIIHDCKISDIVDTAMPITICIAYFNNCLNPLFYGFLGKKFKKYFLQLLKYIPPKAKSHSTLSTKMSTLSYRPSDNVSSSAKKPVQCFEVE
PROTOCOL DESCRIPTION: Compound was tested for in vitro inhibition of specific binding of [I-125]AII to AT1 receptor in guinea pig adrenal membrane preparation
Type: cell membranes

{"columns": ["SMILES", "IC50, nM"],
 "data": [
  ["CCc1cc(OCc2ccc(-c3ccccc3-c3nn[nH]n3)c(C(=O)OC)c2)c2c(n1)CCCC2", 20],
  ["CCc1cc(OCc2ccc(-c3ccccc3-c3nn[nH]n3)c(C(C)=O)c2)c2c(n1)CCCC2", 6],
  ["CCc1cc(OCc2ccc(-c3ccccc3-c3nn[nH]n3)c(Cl)c2)c2c(n1)CCCC2", 7],
  ["CCc1cc(OCc2ccc(-c3ccccc3-c3nn[nH]n3)c(OC)c2)c2c(n1)CCCC2", 8],
  ["CCc1cc(OCc2ccc(-c3ccccc3-c3nn[nH]n3)c(C(=O)O)c2)c2c(n1)CCCC2", 27]
]}
